Target: PI3K β (Homo sapiens (Human), UniProt P42338)
Sequence (P42338 whole entry): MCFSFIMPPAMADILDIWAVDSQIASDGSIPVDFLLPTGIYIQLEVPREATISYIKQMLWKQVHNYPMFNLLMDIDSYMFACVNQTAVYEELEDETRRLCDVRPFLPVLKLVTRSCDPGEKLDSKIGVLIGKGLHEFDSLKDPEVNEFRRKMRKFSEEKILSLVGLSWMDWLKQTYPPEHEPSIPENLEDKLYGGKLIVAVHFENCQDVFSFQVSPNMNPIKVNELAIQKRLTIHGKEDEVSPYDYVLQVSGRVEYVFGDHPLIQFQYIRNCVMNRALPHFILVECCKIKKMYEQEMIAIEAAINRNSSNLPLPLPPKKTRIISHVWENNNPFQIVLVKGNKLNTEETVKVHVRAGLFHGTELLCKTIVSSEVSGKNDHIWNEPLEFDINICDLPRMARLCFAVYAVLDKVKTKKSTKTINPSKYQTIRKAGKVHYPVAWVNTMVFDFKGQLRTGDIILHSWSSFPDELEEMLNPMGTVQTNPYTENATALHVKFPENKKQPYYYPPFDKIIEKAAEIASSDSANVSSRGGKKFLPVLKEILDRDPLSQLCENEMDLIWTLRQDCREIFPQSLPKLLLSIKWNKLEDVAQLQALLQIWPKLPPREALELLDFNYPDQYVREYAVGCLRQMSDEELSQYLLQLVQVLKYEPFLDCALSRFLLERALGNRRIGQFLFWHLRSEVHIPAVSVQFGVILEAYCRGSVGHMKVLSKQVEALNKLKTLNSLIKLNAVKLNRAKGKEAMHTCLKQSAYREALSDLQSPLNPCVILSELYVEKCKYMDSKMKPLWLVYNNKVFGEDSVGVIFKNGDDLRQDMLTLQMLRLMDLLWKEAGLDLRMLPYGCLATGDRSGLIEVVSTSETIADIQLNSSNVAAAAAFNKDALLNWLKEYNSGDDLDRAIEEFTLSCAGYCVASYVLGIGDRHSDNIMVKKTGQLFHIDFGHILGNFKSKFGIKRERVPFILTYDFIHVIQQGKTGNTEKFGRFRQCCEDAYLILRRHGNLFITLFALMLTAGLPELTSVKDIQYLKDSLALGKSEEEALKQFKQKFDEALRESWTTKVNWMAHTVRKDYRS
Sequence (P27986 whole entry partner): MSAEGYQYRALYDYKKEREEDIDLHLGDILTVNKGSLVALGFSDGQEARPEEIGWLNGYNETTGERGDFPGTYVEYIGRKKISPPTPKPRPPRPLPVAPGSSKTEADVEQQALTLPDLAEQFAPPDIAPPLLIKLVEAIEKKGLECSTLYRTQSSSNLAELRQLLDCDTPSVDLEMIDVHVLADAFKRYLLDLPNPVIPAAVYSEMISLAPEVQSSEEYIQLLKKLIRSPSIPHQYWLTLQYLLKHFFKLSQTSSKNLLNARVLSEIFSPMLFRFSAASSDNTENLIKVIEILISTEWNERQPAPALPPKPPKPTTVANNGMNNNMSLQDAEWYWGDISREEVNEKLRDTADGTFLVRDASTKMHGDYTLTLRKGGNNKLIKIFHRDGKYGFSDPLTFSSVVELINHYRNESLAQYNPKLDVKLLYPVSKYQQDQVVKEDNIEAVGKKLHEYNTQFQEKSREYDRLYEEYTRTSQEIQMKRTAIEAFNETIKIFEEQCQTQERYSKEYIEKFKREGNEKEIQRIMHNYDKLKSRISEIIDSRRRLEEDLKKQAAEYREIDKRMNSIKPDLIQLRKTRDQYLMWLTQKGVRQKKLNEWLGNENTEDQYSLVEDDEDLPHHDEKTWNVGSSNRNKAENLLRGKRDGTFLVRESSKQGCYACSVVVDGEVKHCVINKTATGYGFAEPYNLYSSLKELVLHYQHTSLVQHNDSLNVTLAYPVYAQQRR
reported property: IC50

Worked examples, 8 compounds total:
CC(N)C(=O)N1CCN(c2cnc3ccc(-c4ccc5oc(N)nc5c4)cc3n2)CC1 (stereo not drawn) = < 1 µM
Nc1nc2cc(-c3ccc4ncc(C(=O)N5CC[C@H](N6CCOCC6)C5)n4c3)ccc2o1 = > 10 µM
CN1CC(C(=O)N2CCC(Nc3ncnc4ccc(-c5ccc6oc(N)nc6c5)cc34)CC2)C1 = < 1 µM
CN(C)[C@@H]1CCN(c2cnc3ccc(-c4ccc5oc(N)nc5c4)cc3n2)C1 = < 0.1 µM
CC(=O)Nc1nc2ccc(-c3ccc4nccc(-c5ccncc5)c4c3)cc2s1 [Compound 2] = > 10 µM
Nc1nc2cc(-c3ccc4ncc(N5CC(N6CCN(CCO)CC6)C5)cc4n3)ccc2o1 = < 10 µM
Nc1nc2cc(-c3ccc4ncc(C(=O)Nc5cccnc5)n4c3)ccc2o1 = > 10 µM
Nc1nc2cc(-c3ccc4ncc(N5CC(N6CC[C@H](O)C6)C5)nc4c3)ccc2o1 = < 1 µM

# evaluate next
`C[C@H]1CN(c2cnc3scc(-c4ccc5oc(N)nc5c4)c3c2)CCN1` has a reported IC50 of > 10 µM
